Test description: Moisture sorption analysis
Format: physicochemical
Test parameters: 90% RH, 25° C.
Below is a list of entries, each paired with its recorded water absorbed value.

Molecule | water absorbed
CC1=NS(=O)(=O)c2cc(Cl)ccc2N1 [diazoxide] | ~0.20 wt %

// recorded water absorbed for C1COCCO1.CC1=NS(=O)(=O)c2cc(Cl)ccc2[N-]1.CC1=NS(=O)(=O)c2cc(Cl)ccc2[N-]1.[K+].[K+] [diazoxide potassium salt Form F] : ~22 wt %

// recorded water absorbed for CC1=NS(=O)(=O)c2cc(Cl)ccc2[N-]1.[K+] [potassium salt of diazoxide] : 38.3 wt %

---

Test description: Moisture sorption analysis
Assay type: physicochemical
Assay endpoint: crystalline form after moisture sorption/desorption (XRPD)

Compound | Data value
CC(C)=O.CC1=NS(=O)(=O)c2cc(Cl)ccc2[N-]1.CC1=NS(=O)(=O)c2cc(Cl)ccc2[N-]1.[K+].[K+] [diazoxide potassium salt Form C] | consistent with Form D
C1COCCO1.CC1=NS(=O)(=O)c2cc(Cl)ccc2[N-]1.CC1=NS(=O)(=O)c2cc(Cl)ccc2[N-]1.[K+].[K+] [diazoxide potassium salt Form F] | consistent with Form D
CC1=NS(=O)(=O)c2cc(Cl)ccc2[N-]1.CC1=NS(=O)(=O)c2cc(Cl)ccc2[N-]1.O.[K+].[K+] [diazoxide potassium salt Form D] | consistent with Form D

---

Test description: Bioavailability of diazoxide choline and related molecules
Test parameters: male mice, ratio of AUC0-6 to that of the IV dose of diazoxide choline
Below is a list of entries, each paired with its recorded Relative oral bioavail. value.
Respond numerically; units are % and should not be typed.

// recorded Relative oral bioavail. for `O=S1(=O)N=C(NC2CCC2)Nc2ccc(Br)cc21` : 0.6

// recorded Relative oral bioavail. for `COc1ccc2c(c1)NC(NC(C)C)=NS2(=O)=O` : 2.6

// recorded Relative oral bioavail. for `O=S1(=O)N=C(NC2CCC2)Nc2ccc(F)cc21` : 0.06

// recorded Relative oral bioavail. for `CC(C)NC1=NS(=O)(=O)c2cc(Cl)c(F)cc2N1` : 0.2

---

Test description: Bioavailability of diazoxide choline and related molecules
Test parameters: male mice, Oral gavage, single 50 mg/kg dose
Below is a list of entries, each paired with its recorded AUC0-6 value.
Respond numerically; units are ng·h/mL and should not be typed.

The cases that follow already have their AUC0-6 on record.
Structure smiles | AUC0-6 [ng·h/mL]
O=S1(=O)N=C(NC2CCC2)Nc2ccc(Br)cc21 | 800
CC(C)NC1=NS(=O)(=O)c2cc(Cl)c(F)cc2N1 | 313
O=S1(=O)N=C(NC2CCC2)Nc2ccc(F)cc21 | 89

// next item, AUC0-6 requested
// recorded AUC0-6 for `COc1ccc2c(c1)NC(NC(C)C)=NS2(=O)=O` : 3590
